FYI, the data here is from patent EP1899377B1.

# measuredOn: T1, GST-human NOGO-A56 (human, UniProt Q9NQC3 586-785)
# T1 construct: GST-tagged fusion expressed in E. coli BL21 from pGEX-6P1; also called hNOGO; human NOGO 5+6 GST; not shown: Glutathione S-transferase tag encoded by vector pGEX-6P1 (N-terminal, with vector linker)
# T1 sequence: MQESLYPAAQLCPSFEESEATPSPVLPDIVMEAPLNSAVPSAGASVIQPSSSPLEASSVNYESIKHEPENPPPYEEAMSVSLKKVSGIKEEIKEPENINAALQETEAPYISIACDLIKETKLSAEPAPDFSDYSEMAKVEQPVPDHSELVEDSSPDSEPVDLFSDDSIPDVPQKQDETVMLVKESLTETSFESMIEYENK
# experimentSummary: SPR (Biacore), GST-human NOGO-A56 immobilised, purified antibody as analyte; single experiment
measureName: koff (s⁻¹)

>>> measvalue("HcLc (antibody, human IgG1, kappa, V domains shown, also called chimera of 2A10; 2A10 chimeric antibody) VH: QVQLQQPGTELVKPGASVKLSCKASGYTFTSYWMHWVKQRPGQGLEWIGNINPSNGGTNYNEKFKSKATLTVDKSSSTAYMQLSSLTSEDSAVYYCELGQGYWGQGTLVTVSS VL: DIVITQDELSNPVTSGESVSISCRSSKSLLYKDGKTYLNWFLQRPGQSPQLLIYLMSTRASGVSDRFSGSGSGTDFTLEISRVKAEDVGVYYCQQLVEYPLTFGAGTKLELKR")
0.00369
>>> measvalue("H22L16 (antibody, human IgG1, kappa, V domains shown, human gamma1 mutated constant region, human kappa) VH: QVQLVQSGAEVKKPGASVKVSCKASGYTFTSYWMHWVKQRPGQGLEWIGNINPSNGGTNYNEKFKSKATMTRDTSTSTAYMELSSLRSEDTAVYYCELGQGYWGQGTLVTVSS VL: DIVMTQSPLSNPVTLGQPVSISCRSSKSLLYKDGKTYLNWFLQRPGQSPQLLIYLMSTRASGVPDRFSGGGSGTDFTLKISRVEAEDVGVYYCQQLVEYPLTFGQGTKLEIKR")
0.00759
>>> measvalue("H6L13 (antibody, human IgG1, kappa, V domains shown) VH: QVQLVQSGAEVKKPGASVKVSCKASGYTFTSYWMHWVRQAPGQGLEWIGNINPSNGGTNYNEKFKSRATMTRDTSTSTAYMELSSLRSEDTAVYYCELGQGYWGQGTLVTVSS VL: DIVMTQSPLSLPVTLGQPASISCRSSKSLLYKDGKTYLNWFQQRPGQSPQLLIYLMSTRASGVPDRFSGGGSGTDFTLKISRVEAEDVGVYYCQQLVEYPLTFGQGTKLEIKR")
0.0155
>>> measvalue("H1L11 (antibody, human IgG1, kappa, V domains shown) VH: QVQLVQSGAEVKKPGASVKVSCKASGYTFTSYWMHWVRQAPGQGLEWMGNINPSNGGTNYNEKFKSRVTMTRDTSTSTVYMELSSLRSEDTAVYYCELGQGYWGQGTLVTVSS VL: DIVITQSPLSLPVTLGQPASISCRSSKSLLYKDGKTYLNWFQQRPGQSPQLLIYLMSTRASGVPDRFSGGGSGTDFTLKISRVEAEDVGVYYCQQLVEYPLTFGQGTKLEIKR")
0.0219
